Max Inhibition Percentage: recorded values
Tested on: pancreatic cancer cell line (PSN1)
Assay: Proliferation inhibitory activity on cell line PSN1 (CellTiter-Glo, 72 hours)
Format: cell-based
Settings: PSN1 cells, first column of this head
Give your answer as a number; write no unit.

Completed entries (count: 3):
NC(=O)c1nn(CCO)c2c1CCc1cnc(Nc3cc(N4CCN5CCC[C@@H]5C4)ccc3OC(F)(F)F)nc1-2	80.8
[2H]C1([2H])CN(c2ccc(OC(F)(F)F)c(Nc3ncc4c(n3)-c3c(c(C(N)=O)nn3CCO)CC4)c2)C([2H])([2H])[C@H]2CCCN21	87.6
[2H]C1([2H])N(C)C([2H])([2H])C([2H])([2H])N(c2ccc(OC(F)(F)F)c(Nc3ncc4c(n3)-c3c(c(C(N)=O)nn3CCO)CC4)c2)C1([2H])[2H]	93.7

Would you kindly share the measured Max Inhibition Percentage for "NC(=O)c1nn(CCO)c2c1CCc1cnc(Nc3cc(N4CCN5CCC[C@H]5C4)ccc3OC(F)(F)F)nc1-2" ?
73.6

Try this compound next: CN1CCN(c2ccc(OC(F)(F)F)c(Nc3ncc4c(n3)-c3c(c(C(N)=O)nn3CCO)CC4)c2)CC1 [NMS-P937, onvansertib, reference compound]
85.9
